# EXPERIMENTAL_SYSTEM: Luciferin 4-monooxygenase (Photinus pyralis)
# ASSAY_COMMENT: qHTS profiling assay for firefly luciferase inhibitor/activator using purifed enzyme and Km concentrations of substrates (counterscreen for miR-21 project); note: nearly all actives have a fitted effect of over 55% in size
# CONDITION_SUMMARY: purified FLuc, luminescence inhibition; series mostly up to 57.5 µM
Screen size: about 360,000 compounds; about 25,000 (6.9%) were called active. Not shown: some 9% with an inconclusive outcome. Calls come from the whole dose curve; as a rule, active = well fitted inhibition curve with a large enough effect; inconclusive = small, poorly fitted or top-dose-only effect; inactive = flat fitted curve, though single readings scatter. This excerpt belongs to a sample that is enriched for actives.
Possible outcomes: T for active, F for inactive

- Cc1ccc(NC(=O)CCCNC(=O)c2ccc(Cl)cc2)cc1S(=O)(=O)N1CCOCC1: F
- COc1ccc(C(=O)NCc2ccc(Cl)cc2)cc1S(=O)(=O)N1CCCC1: F
- CCS(=O)(=O)N1CCC(n2c(C)nc3cccnc32)CC1: F
- COc1ccc(C(=O)Nc2sc(C)c(C)c2CN2CCOCC2)cc1: T
- O=C(CO/N=C/c1ccc(OC(F)F)cc1)NCc1ccc(F)cc1: F
- COc1ccc(C(=O)Nc2ccnn2C2CCN(Cc3ccncc3)CC2)cc1: F
- CCCCN(C(=O)c1nn(C)c(=O)c2ccccc12)c1c(N)n(CCC)c(=O)[nH]c1=O: F
- CCC(C(=O)OCC(=O)Nc1ccc(C(=O)Nc2ccc(OC)cc2)cc1)c1ccccc1 (stereo unspecified): F
- Cc1ccc(Nc2nc(C)cc(C)c2C(N)=O)cc1: F
- COc1cccc(NC(=O)c2csnn2)c1: F
- Cc1cc(C(C)(C)C)n2nc(C)c(-c3ccccc3)c2n1: F

----------
# EXPERIMENTAL_SYSTEM: Luciferin 4-monooxygenase (Photinus pyralis)
# ASSAY_COMMENT: qHTS profiling assay for firefly luciferase inhibitor/activator using purifed enzyme and Km concentrations of substrates (counterscreen for miR-21 project); note: nearly all actives have a fitted effect of over 55% in size
# CONDITION_SUMMARY: purified FLuc, luminescence inhibition; series mostly up to 57.5 µM
# Source text: MLPCN Grant: 1 R21 NS059478-01 (miR-21 grant) Assay Provider: NCGC NCGC Assay Overview: Firefly (Photinus pyralis) luciferase is one of the most commonly used transcriptional reporters for a number of reasons. […] Although light produced in a bioluminescence reaction is of lower intensity than that produced during fluorescence emission, this is offset by little to no background light inherent to luminescent assays. […]
About 25,000 (6.9%) of roughly 360,000 compounds were called active. Inconclusive results (about 9%) are left out. Calls follow the shape of the dose curve; as a rule, active = well fitted inhibition curve with a large enough effect; inconclusive = small, poorly fitted or top-dose-only effect; inactive = flat fitted curve, though single readings scatter. The sample holds actives, similar compounds and a random draw of the others, so the mix is not that of the screen.
Possible outcomes: active, inactive

• C/C(=N\NC(=O)c1ccc2ccccc2c1)c1cccnc1 = active
• O=C(CNS(=O)(=O)c1ccc2c(c1)OCCCO2)N1CCN(c2ccc(F)cc2)CC1 = inactive
• C/C(=N\NC(=O)Cc1ccc(Br)cc1)c1cccnc1 = inactive
• CCc1ccc(CNCc2c(C(=O)O)n(Cc3ccc(F)cc3Cl)c3cc(OC)ccc23)cc1 = inactive
• O=C(NCCc1ccccc1)c1ccc2c(c1)N(Cc1ccccc1)C(=O)c1ccccc1S2(=O)=O = inactive
• C/C(=N\NC(=O)c1cccnc1)c1ccc(-c2ccccc2)cc1 = inactive
• CSc1ccccc1C(=O)Nc1cccc(C(C)=O)c1 = inactive
• CCOCCCn1c(SCC(=O)Nc2ccc(CC)cc2)nc2ccccc2c1=O = inactive
• COc1ccc(NC(=O)CN(C)C(=O)c2n[nH]c3ccccc23)cc1 = active
• N#CC(=C1SC=CS1)c1nc(-c2ccccc2)cs1 = active
• COc1ccc(NC(=O)CN(C)C(=O)CNC(=O)C2CCCCC2)cc1 = inactive
• CCCn1nc(C(=O)N2CCCc3ccccc32)c2ccccc2c1=O = inactive
• COC(=O)c1sc(-c2ccc(C(C)(C)C)cc2)cc1NC(=O)/C=C/C(=O)O = active
• O=C(NCCCN1CCOCC1)c1cc(-c2cccc(O)c2)on1 = inactive
• COc1cn(CC(=O)Nc2cccc(C)c2C)c(CN2CCCCC2)cc1=O = inactive
• O=C(c1cccs1)N1CCN(C(=O)N2CCOCC2)CC1 = inactive
• CC(C(=O)O)n1cnc2sc3c(c2c1=O)CCCC3 (stereo unspecified) = inactive
• Cc1ccc(CNC(=O)Cn2c(=O)ccc3cc(S(=O)(=O)N4CCCC4)ccc32)cc1 = inactive
• CCN(CC)S(=O)(=O)c1ccc2c(c1)N(CC(=O)NCc1ccccc1)C(=O)CS2 = inactive
• C/C(=N\NC(=O)c1cccnc1)c1ccc(-n2ccnc2)cc1 = inactive
• CC(=O)c1cccc(NC(=S)N2CCN(S(C)(=O)=O)CC2)c1 = inactive
• CC(C)c1ccc(OCC(=O)N(Cc2ccc(N(C)C)cc2)C2CCS(=O)(=O)C2)cc1 (stereo unspecified) = inactive
• O=C(c1c(Cl)nc2sccn12)N1CCCc2ccccc21 = inactive
• Cn1cccc1C(=O)N1CCc2ccccc2C1 = inactive
• N#C/C(=C1/CCCN1)c1ccccn1 = inactive
• Cc1ccc(NC(=O)C(C)OC(=O)Cc2c[nH]c3ccccc23)cc1S(=O)(=O)N1CCOCC1 (stereo unspecified) = inactive
• COc1cccc(NC(=O)N(Cc2cn(C)c3ccccc23)C2CCCCCC2)c1 = inactive
• O=C(c1cc(-c2ccc(O)cc2)on1)N1CCOCC1 = active
• O=S(=O)(Nc1ccccc1)c1ccc(NS(=O)(=O)c2cccs2)cc1 = inactive
• Cc1ccccc1CNC(=O)C1CCCN(S(=O)(=O)N(C)c2ccc(F)cc2)C1 (stereo unspecified) = inactive
• C/C(=N\NC(=O)Cc1ccccc1[N+](=O)[O-])c1cccnc1 = active
• C=CCSc1nsc(NC(=O)Nc2cccc(C(C)=O)c2)n1 = active
• CCSc1nsc(NC(=O)Nc2cccc(C(C)=O)c2)n1 = active
• C/C(=N\NC(=O)c1ccc(NS(=O)(=O)c2cccs2)cc1)c1ccc2ccccc2c1 = active
• O=C(NCCc1ccco1)c1nn(Cc2ccccc2)c(=O)c2ccccc12 = inactive
• Cc1ccc2nc(CN3CCN(S(=O)(=O)c4ccc(C)c(C)c4)CC3)oc2c1 = inactive
